Target: c-Src SH2;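 also: peptide library displayed on the E. coli surface as eCPX fusions, selected cells deep-sequenced, score is each peptide's frequency after selection divided by its frequency in the input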
Assay: SH2 binding enrichment of the phosphorylated peptide, bacterial display (enrichment ratio); higher = better substrate or ligand; peptides without Tyr show the background
So basically every entry gets a class from its SH2 binding enrichment, ranges being lowest (below 0.5), middle (0.5 to below 0.7), highest (0.7 or more)

Query block: Please let me know in which category the item ETRWNYHFEVV [GCNT3_Y267_K266N] belongs.
Result block: middle

Query block: Please indicate the class for GHPYAYDWISI [BEST1_Y227_L224P] based on its SH2 binding enrichment.
Result block: highest

Query block: Which SH2 binding enrichment category applies to HPWPRYTTRAP [FNDC1_Y1281_Q1280R] here?
Result block: lowest

Query block: Quick check: band for EYFDGYWEYSV [ITGA2B_Y265_G267E]
Result block: lowest

Query block: In plain terms, what class is APGDAYGDAGY [SYP_Y250] ?
Result block: lowest

Query block: Hey, which category is SRVNKYSTAFG [GJB3_Y16_G12R] in, do you know?
Result block: highest

Query block: For the record VMICAYLLHRG [PTEN_Y138] , report the class its SH2 binding enrichment corresponds to.
Result block: highest

Query block: Kindly identify the class of DSFSSYCNAVA [SLC20A2_Y436_YF] .
Result block: highest

Query block: Which class does SDVDLYQVRTA [PSMD9_Y70] fall in?
Result block: lowest

Query block: Band for HTLIKYTDGDQ [PUS7L_Y94] ?
Result block: lowest

Query block: Which category does the recorded SH2 binding enrichment put RDVEQYVNNVN [PCDH19_Y1097_L1094V] in?
Result block: middle

Query block: Consider FGHTFYNQAIM [MCCC2_Y196_R193H] . To which SH2 binding enrichment class does it belong?
Result block: highest

Query block: Class label required: ITGNGYFFRVF [MYBPC3_Y1135_I1131T_YF]
Result block: lowest

Query block: Classify this sequence: PLDGEYFTLPI [TP53_Y327_Q331P]
Result block: lowest

Query block: Could you tell me which band SLTRLCVGENA [NLRP3_Y861_Y861C] belongs to?
Result block: middle

Query block: Hi there! Could you help me figure out the category for YTDPYYDYEIE [ZC3H18_Y372_A368T] please?
Result block: highest

Query block: Class label required: LEISPYMLSGP [LRRK2_Y1718_R1723P]
Result block: middle

Query block: For FQEPVYSVAFS [TBL1X_Y509_H504Y_YF] , which SH2 binding enrichment bin applies?
Result block: lowest

Query block: Exercise: read the entry CEAMEYLESKQ [BTK_Y511] and state which class it falls under.
Result block: lowest

Query block: GET /class?item= DNAYQYMLTDR [MYH7_Y164]
Result block: highest

Query block: # bin label for KPSLKYVTYGN [GALNTL5_Y404_G401S]
Result block: highest

Query block: Which class is correct for the following sequence? KLKRSYCSPDI [USP8_Y717_S718C]
Result block: highest

Query block: Category of QYNIQYSSSAA [ERBB2IP_Y981] :
Result block: middle

Query block: Please indicate the class for LIPIKYKAMKK [MYD88_Y257] based on its SH2 binding enrichment.
Result block: middle

Query block: # classify by SH2 binding enrichment band: STAPSYGNPSS [CD19_Y378_G373S]
Result block: lowest

Query block: Assign a category based on measured SH2 binding enrichment for LSERGYSFVTT [ACTA2_Y200_T196S] and give only the class name.
Result block: highest

Query block: Classify this sequence: CTTILYNYMCN [TP53_Y234_H233L]
Result block: highest

Query block: Pick a category. Item: RLNWIYFKDQT [RS1_Y165_YF]
Result block: highest

Query block: Kindly identify the class of RRNVYYYSYLL [PTEN_Y177_Y174N] .
Result block: middle

* * *

Molecular target: Fyn (UniProt P06241)
Sequence (P06241 whole entry, looked up): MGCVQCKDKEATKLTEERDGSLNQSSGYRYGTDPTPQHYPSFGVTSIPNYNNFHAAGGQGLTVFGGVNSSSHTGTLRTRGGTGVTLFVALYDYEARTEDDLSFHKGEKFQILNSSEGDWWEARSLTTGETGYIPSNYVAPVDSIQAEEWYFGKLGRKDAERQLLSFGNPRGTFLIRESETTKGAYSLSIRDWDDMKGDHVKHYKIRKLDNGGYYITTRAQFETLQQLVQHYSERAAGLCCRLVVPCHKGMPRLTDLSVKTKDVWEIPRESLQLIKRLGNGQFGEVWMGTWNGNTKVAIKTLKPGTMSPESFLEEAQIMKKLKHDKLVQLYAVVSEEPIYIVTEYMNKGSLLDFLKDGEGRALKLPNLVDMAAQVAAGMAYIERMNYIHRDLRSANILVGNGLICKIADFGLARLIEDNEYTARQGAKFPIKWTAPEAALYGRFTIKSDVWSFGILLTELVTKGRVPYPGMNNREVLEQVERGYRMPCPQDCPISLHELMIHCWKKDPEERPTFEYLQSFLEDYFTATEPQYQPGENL
Assay: phosphorylation enrichment, bacterial display (enrichment ratio); higher = better substrate or ligand; peptides without Tyr show the background
measured_property: phosphorylation enrichment
Give only the figure.

Query block: Please give the measured phosphorylation enrichment for this sequence: IETGRYEILTE
Result block: 0.488

Query block: Can you look up the measured phosphorylation enrichment of NSRFTCKLEVK [USH2A_Y3747_Y3747C_YF] for me?
Result block: 0.378

Query block: Endpoint output: phosphorylation enrichment of FSDQVYRQRRK [TH_Y230] . Value?
Result block: 0.615

Query block: Data request, read-out phosphorylation enrichment, for RLCQDYDIIGP [ANK1_Y1073_T1075I]
Result block: 1.6

Query block: Sample ASNFNYFYHRE [KCNA1_Y413_V408A] — what was its phosphorylation enrichment?
Result block: 0.504

Query block: Which phosphorylation enrichment is reported for this sequence? HRGHLYLAIEF [TEK_Y899_Y897H_YF]
Result block: 1.49

Query block: If you can, please state the reported phosphorylation enrichment value of HLTNQFMQRVA [PABPC4_Y382_Y382F] .
Result block: 0.437

Query block: // phosphorylation enrichment lookup, key: NLMPAYFKCIQ [CYP21A2_Y190_YF]
Result block: 0.546

Query block: Using the record for CEAMEYLESKQ [BTK_Y511] , report its phosphorylation enrichment.
Result block: 0.557

Query block: Please look up its phosphorylation enrichment: EDDIIYTQDFT [STK11_Y362]
Result block: 0.796

* * *

Provide the recorded phosphorylation enrichment for the entries that follow.
System: c-Abl (mouse)
Assay: phosphorylation enrichment, bacterial display (enrichment ratio); higher = better substrate or ligand; peptides without Tyr show the background
Please reply with the value in numeric form only.

Query block: Which phosphorylation enrichment reading was recorded for the sequence TQIGQYGNGLK [MORC2_Y100] ?
Result block: 0.339

Query block: phosphorylation enrichment lookup needed for ETDSEYVKLSK [C7orf57_Y70_A74S] , thanks.
Result block: 0.695

Query block: Requested read-out: phosphorylation enrichment. Entry: RRESQYQENRG [LRCH3_Y354]
Result block: 0.73

Query block: I'd like to know its phosphorylation enrichment. The sequence in question is LLIMEYAKFGS [RET_Y806_V804M_YF]
Result block: 1.51

Query block: Value lookup for phosphorylation enrichment; key = KGKLIYLLRDS [NXPE1_Y350_G353R]
Result block: 0.666

Query block: Recorded phosphorylation enrichment for LVSCTYQLARR [FGFR2_Y608_G613R] , please?
Result block: 0.721

Query block: What value of phosphorylation enrichment has been recorded for this entry: FSTSPYLLEAA [BRIP1_Y921_YF]
Result block: 0.458

Query block: // phosphorylation enrichment lookup, key: QGIFGYHHHMQ [UFSP2_Y287_Y290H_YF]
Result block: 0.652

* * *

Kindly state phosphorylation enrichment for each of the entries shown.
Target: FGFR1 (UniProt P11362)
Sequence (P11362 whole entry, looked up): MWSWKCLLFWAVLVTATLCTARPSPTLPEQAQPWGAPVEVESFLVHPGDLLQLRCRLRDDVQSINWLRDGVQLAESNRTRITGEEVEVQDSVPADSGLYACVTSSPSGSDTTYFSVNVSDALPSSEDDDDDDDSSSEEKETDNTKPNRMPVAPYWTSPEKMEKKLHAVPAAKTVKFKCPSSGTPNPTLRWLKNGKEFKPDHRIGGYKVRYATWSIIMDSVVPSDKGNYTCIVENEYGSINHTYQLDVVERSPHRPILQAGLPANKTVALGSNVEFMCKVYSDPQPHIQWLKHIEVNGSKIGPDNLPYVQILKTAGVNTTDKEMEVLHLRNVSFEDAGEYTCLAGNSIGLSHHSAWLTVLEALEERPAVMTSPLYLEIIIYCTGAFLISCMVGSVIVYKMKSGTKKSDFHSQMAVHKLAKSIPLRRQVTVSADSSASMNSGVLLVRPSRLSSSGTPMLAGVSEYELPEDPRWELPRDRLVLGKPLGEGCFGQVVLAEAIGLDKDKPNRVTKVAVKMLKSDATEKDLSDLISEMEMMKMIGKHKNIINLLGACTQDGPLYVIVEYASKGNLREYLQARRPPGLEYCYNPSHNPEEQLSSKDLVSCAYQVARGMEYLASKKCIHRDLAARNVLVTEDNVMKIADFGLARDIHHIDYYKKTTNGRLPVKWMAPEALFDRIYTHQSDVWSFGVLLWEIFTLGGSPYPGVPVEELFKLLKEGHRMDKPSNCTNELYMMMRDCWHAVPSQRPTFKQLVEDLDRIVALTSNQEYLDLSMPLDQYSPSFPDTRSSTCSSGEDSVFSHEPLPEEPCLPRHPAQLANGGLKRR
Test: phosphorylation enrichment, bacterial display (enrichment ratio); higher = better substrate or ligand; peptides without Tyr show the background
Reply: number alone, nothing else.

Query block: Could you tell me which phosphorylation enrichment is on file for CIILLYIFLKN [STXBP1_Y411_R406C] ?
Result block: 0.392

Query block: // phosphorylation enrichment lookup, key: QDLFLYQTHSE [PKHD1_Y255]
Result block: 0.492

Query block: Which phosphorylation enrichment value is on record for APIEDYGGGGG [B4GALT6_Y382] ?
Result block: 0.523

Query block: // phosphorylation enrichment lookup, key: PLDGEYFILQI [TP53_Y327_T329I]
Result block: 14.5

Query block: Quick one: phosphorylation enrichment of HSDFQYSQRSQ [PKP2_Y168_YF] ?
Result block: 0.931

Query block: Which phosphorylation enrichment reading was recorded for the sequence SRVNKYSTAFG [GJB3_Y16_G12R] ?
Result block: 0.383

Query block: Request the reported phosphorylation enrichment associated with SGGGLYRDMGA [CBX8_Y321]
Result block: 0.524

* * *

Molecular target: Jak2 (UniProt O60674)
Sequence (O60674 whole entry, looked up): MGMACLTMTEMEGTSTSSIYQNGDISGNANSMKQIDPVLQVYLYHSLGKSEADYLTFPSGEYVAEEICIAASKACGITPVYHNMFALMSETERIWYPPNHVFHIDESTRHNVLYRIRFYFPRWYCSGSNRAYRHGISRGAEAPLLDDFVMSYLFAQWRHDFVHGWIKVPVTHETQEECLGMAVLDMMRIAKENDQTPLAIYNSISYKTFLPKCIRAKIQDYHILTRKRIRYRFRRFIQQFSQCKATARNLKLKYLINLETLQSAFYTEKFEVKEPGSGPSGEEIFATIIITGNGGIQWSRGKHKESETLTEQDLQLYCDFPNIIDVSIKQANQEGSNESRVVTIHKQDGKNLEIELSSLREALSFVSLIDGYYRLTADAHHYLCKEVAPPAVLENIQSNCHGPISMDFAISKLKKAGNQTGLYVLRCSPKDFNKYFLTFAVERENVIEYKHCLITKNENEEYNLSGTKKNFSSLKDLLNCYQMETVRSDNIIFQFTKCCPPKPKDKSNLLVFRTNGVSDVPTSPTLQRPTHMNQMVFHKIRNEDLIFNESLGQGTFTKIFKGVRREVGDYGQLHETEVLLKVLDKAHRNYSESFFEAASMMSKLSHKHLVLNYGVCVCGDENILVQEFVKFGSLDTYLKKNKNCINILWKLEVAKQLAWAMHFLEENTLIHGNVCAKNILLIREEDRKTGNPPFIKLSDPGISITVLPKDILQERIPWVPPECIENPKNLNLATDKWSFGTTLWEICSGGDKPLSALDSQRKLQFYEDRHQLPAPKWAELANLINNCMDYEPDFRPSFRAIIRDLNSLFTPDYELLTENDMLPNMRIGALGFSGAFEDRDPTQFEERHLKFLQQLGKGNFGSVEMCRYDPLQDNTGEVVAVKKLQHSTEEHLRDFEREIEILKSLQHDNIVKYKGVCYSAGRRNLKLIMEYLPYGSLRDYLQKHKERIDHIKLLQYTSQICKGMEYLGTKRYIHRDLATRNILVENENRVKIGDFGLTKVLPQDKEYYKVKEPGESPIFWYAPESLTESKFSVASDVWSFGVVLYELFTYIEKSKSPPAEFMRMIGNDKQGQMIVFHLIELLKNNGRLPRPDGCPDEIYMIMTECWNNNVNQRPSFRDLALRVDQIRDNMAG
Test: phosphorylation enrichment, bacterial display (enrichment ratio); higher = better substrate or ligand; peptides without Tyr show the background
Categorize each record by its phosphorylation enrichment using bottom end = under 0.8, midrange = from 0.8 up to 1, top end = 1 and over

Query block: Hello team, could you let me know which band the following sequence falls into: ETRWNYHFEVV [GCNT3_Y267_K266N]
Result block: top end

Query block: Form field 'band' for FEEDSYVERSQ [RET_Y905_K907E_YF]
Result block: top end

Query block: Where would FEELVYETVRV [FSHB_Y76_K72E] land among the classes by reported phosphorylation enrichment?
Result block: midrange

Query block: Which phosphorylation enrichment band matches TQIGQYGNGLK [MORC2_Y100] ?
Result block: bottom end

Query block: Class for CEDMEYLESKQ [BTK_Y511_A508D] ?
Result block: top end

Query block: For this sequence, which bin applies? KFVVVYFRETD [IL17RB_Y447_I451T_YF]
Result block: top end

Query block: Bin? KKRSVYLKVLF [CC2D2A_Y683]
Result block: midrange

Query block: # bin label for FHKALYTVRSF [PDE6C_Y266_YF]
Result block: bottom end

Query block: Note: place this sequence into its band. Item: VHYLVYHHHHH [CACNA1H_Y519_H516Y]
Result block: top end

Query block: Please report the category associated with EVQKDYEHLFK [PAM16_Y77_N76D] , nothing else.
Result block: bottom end

Query block: Please indicate the class for LVSCTYQLARR [FGFR2_Y608_G613R] based on its phosphorylation enrichment.
Result block: top end

Query block: Category lookup for the sequence IEEGTYGVVYR [CDK11B_Y449]
Result block: midrange

Query block: The entry to classify is FRPPYYHRDCM [HGD_Y334_N337D] ; which class holds it?
Result block: bottom end

Query block: Which class does CTTIHYNFMFN [TP53_Y234_C238F_YF] fall in?
Result block: top end
